Assign apparent KD of MS2 coat protein to each entry below.
System: MS2 coat protein
assay overview: apparent KD of MS2 coat protein; designed switch direction (-1 OFF switch, 1 ON switch): -1; higher = weaker reporter binding
study conditions: input ligand: microRNA oligo, concentration not stated
Numbers only, in nM.

The following sequences have reported results that may help.
| chain | assay target | unit of measurement | apparent KD of MS2 coat protein |
| --- | --- | --- | --- |
| ACAUGAGGCGAAGGAUAUCUUUAGAGGAUUACCAGAGAAGGUCGACAUGAGGAUCACCCAUGUACAUGAGGGUCUUGAAUGUUA [9th something] (Eterna round: R96, puzzle: Exclusion NG 1) | MS2 coat protein | nM | 199 |
| UCAUGUUUAGAGGAUAUGAUUACUUUUGAGUAAUCAGAAGGCUAGACAUGAGGAUCACCCAUGUCAUAACAUGA [Exclusion 6 - B - 15:d] (Eterna round: R96, puzzle: Exclusion 6) | MS2 coat protein | nM | 75.9 |
| GUCAGGAAUGUAGGAUAUCUGCACGUGUAGUGCAGAGAAGGACAUGAGGAUCACCCAUGUAUAGUAGCUUCGGCUACACCUGAC [ENG1-A3] (Eterna round: R96, puzzle: Exclusion NG 1) | MS2 coat protein | nM | 9.93 |
| GAUCCUCAGACGGACGUCACGAAACAUGAGGAUCACCCAUGUGAGGAUAUCUCCAAAAGGUCGGCAGAGAAGGCACCAUAACAA [Eternabot solution 19] (Eterna round: R96, puzzle: Exclusion NG 3) | MS2 coat protein | nM | 131 |

Please give apparent KD of MS2 coat protein, item by item, for the list that follows.
1. AGCUGUGGCCGAGGAUAUCUAACAAUCCAAACCGAAAUAUAAUCGGACAUGAGGAUCACCCAUGUAGAGAAGGCGGUCUCAGCA [Eli eng2 - 075] (Eterna round: R96, puzzle: Exclusion NG 2)
2. AAACUGAGGCAAAGCUUUAGUCGUACAUGAGGAUCACCCAUGUAGGAUAUGGUAGGCUUUGCUUACCAGAAGGACAGAGUGAUC [Mat - Exclusion NG 3 - Mod of JL - D56] (Eterna round: R96, puzzle: Exclusion NG 3)
3. AGCCUGUAAGUAGGAUAUAUGAUCAGGAAUGAAAUAGAAGGGCUUAGUGGACAUGAGGAUCACCCAUGUCAAUGGGUUCAUGCA [Edria] (Eterna round: R96, puzzle: Exclusion NG 1)
4. AAUAACAGAGGAUAUACUAUUUUAUGUGUUUGUUAUUUUAAACAUGAGGAUCACCCAUGUAGAAGGCUGAUUAA [JMF 44] (Eterna round: R96, puzzle: Exclusion 2)

Response line:
1. 32.7
2. 103
3. 16
4. 34.3

Look at each sequence and report its apparent KD of MS2 coat protein.
1. UUCCUCAUAACAUGAGGAUCACCCAUGUAUUAUUUGAUAACUGAGGAUAUACUAAUAAUGUUUAUGUAGAAGGCAGAUACAGAU [JR_ExcNG3_Sub015] (Eterna round: R96, puzzle: Exclusion NG 3)
2. UUGCAGUCGUCAGGAUAUAGUAUUACGGCCAUUUAUUUUUUCAUACAUGAGGAUCACCCAUGUCGCUAGAAGGGAUUAUCGAUU [salish99_ExNG2_r04_102] (Eterna round: R96, puzzle: Exclusion NG 2)
3. UUGUUAUAUGAAGGAUAUACUUAACAUGAGGAUCACCCAUGUGGUGUUGUGAGUGAGUGAGUUUAGUAGAAGGUCAAUUAUUUU [JMF's solution 29] (Eterna round: R96, puzzle: Exclusion NG 2)
4. AUGGGUCCUCUCGGAGCUACAUGAGGAUCACCCAUGUGUAUUGAGGAUAUCCACUGCUCAGGACUGGAGAAGGCAGUGUACUGU [Ex NG3 #88] (Eterna round: R96, puzzle: Exclusion NG 3)

Response line:
69.1
38.9
380
33.5

Please state apparent KD of MS2 coat protein for every sequence in the list that follows.
1. UGAGUGCUGCGAGGAUAUACAUGAGGAUCACCCAUGUGGAUGUCUGAGGCAAAGCCUCAGACAAUGUAGAAGGCGCAGUACUCU [Mat - Exclusion NG 2 - Mod of JL - D55] (Eterna round: R96, puzzle: Exclusion NG 2)
2. GUCAGCUCGUGAGGAUAUACAUCACUGCUUCGGCAGUGUAUUAAGAUCACAUGAGGAUCACCCAUGUAGAAGGCACGAGCUGAC [ENG2/2-A1] (Eterna round: R96, puzzle: Exclusion NG 2)
3. GUCUUCAUGACAUGAGGAUCACCCAUGUGUUAUUUGUUAACUAAGGAUAUAUUUUUAAUGUUGAGAUAGAAGGUAGUUUCGGUC [JR_ExcNG3_Sub090] (Eterna round: R96, puzzle: Exclusion NG 3)
4. GCACGGAAUGUAGGAUAUUAGUGCGAUUAGCACUGAGAAGGACAUGAGGAUCACCCAUGUAAUAACAUAAUAAACCUUCCGUGC [Eli exng1 - 046] (Eterna round: R96, puzzle: Exclusion NG 1)
5. CCACCGCCGUCAGGAUAUAACAUGAGGAUCACCCAUGUGUGAAGCAUGAGAGACUCUAACAAGUGUUAGAAGGGACUUAUUGCG [Eternabot solution 36] (Eterna round: R96, puzzle: Exclusion NG 2)
6. UUAUUAUAUGAAGGAUAUACUUAACAUGAGGAUCACCCAUGUGGUGUUGUGAGUGAGUGAGUUUAGUAGAAGGUCAAUUAUUUU [JMF's solution 28] (Eterna round: R96, puzzle: Exclusion NG 2)

Response line:
1: 16.6; 2: 34; 3: 93; 4: 8.27; 5: 63.2; 6: 287
